Origin of values: patent US20260374766A1

# studySystem: p53 Y220C (Homo sapiens, UniProt P04637, Y220C)
# assayMethodText: Luciferase Reporter Assay (Luc), p53 response element, NClH1299 cells with inducible p53 Y220C
# Type: cell-based
# testSettings: luciferase reporter, NClH1299 inducible p53 Y220C, 6 hour; 10 uM tool compound as positive control
quantityKind: Emax

Entry `CNC(=O)c1ccc(NCC#Cc2nc3c(N[C@H]4CCn5cncc5C4)cccn3c2SC(F)(F)F)c(OC)c1` has what Emax?
80 to 90%

Entry `CN1CC[C@@H](Nc2cccn3c(CC(F)(F)F)c(C#C[C@H](O)c4ccccc4)nc23)[C@@H](F)C1` has what Emax?
< 70%

Entry `COc1cc2n[nH]cc2cc1NCC#Cc1nc2c(N[C@@H]3CCN(C)C[C@@H]3F)cccn2c1SC(F)(F)F` has what Emax?
80 to 90%

Entry `CNC(=O)c1ccc(OC)c(NCC#Cc2nn3c(N[C@@H]4CCNC[C@@H]4F)cccc3c2SC(F)F)c1` has what Emax?
80 to 90%

Entry `CNC(=O)c1ccc(NCC#Cc2nn3c(N[C@@H]4CCN(C)C[C@@H]4F)cccc3c2SC(F)F)c(OC)c1` has what Emax?
80 to 90%

Entry `CNC(=O)c1ccc(NCC#Cc2nc3c(NC4CCN(C)CC4)cc(N)cn3c2CC(F)(F)F)c(OC)c1` has what Emax?
< 70%

Entry `CNC(=O)c1ccc(NCC#Cc2nc3c(N[C@@H]4CCN(CC(C)(C)O)C[C@@H]4F)cccn3c2SC(F)(F)F)c(OC)c1` has what Emax?
80 to 90%

Entry `CNC(=O)c1ccc(NCC#Cc2nc3c(N[C@@H]4CN(C)CC[C@@H]4F)cccn3c2SC(F)(F)F)c(OC)c1` has what Emax?
70 to 80%

Entry `CNC(=O)c1ccc(NCC#Cc2nc3c(N[C@@H]4CCN(C)C[C@@H]4F)cccn3c2SC(F)(F)F)c(OC)n1` has what Emax?
> 90%

Entry `CNC(=O)c1ccc(O)c(NCC#Cc2cc3c(N[C@@H]4CCN(C)C[C@@H]4F)nccn3c2SC(F)(F)F)c1` has what Emax?
> 90%
